Each recorded value in this set is attributed to the Immune Epitope Database (IEDB).

Target System: HLA-B*39:01
Assay Name: IEDB peptide-MHC binding, purified MHC/competitive/fluorescence; filed as Kd, often an IC50 or EC50 that approximates it; bounds were set here for any values at or beyond the usual limits of such assays
Test Parameters: source organism: Yersinia pestis Nepal516
pKd: −log10 of the molar value.
Metric Name: pKd

Lookup: What measured pKd goes with LELIGNAES ?
Found: ≤ 4.70

###

Target System: HLA-B*27:05
Assay Name: IEDB peptide-MHC binding, purified MHC/direct/fluorescence; filed as Kd, often an IC50 or EC50 that approximates it; bounds were set here for any values at or beyond the usual limits of such assays
Test Parameters: source organism: H9N2 subtype Influenza A virus (A/swine/Korea/S81/2004(H9N2))
Metric Name: Kd

Lookup: What does the record list as Kd for KAVRGDLNF ?
Found: ≥ 20 µM

###

Give Kd for every item shown.
Target System: HLA-B*48:01
Assay Name: IEDB peptide-MHC binding, purified MHC/direct/fluorescence; filed as Kd, often an IC50 or EC50 that approximates it; bounds were set here for any values at or beyond the usual limits of such assays
Test Parameters: source organism: Escherichia coli O157:H7

{"columns": ["Sequence", "Measured Value"],
 "data": [
  ["VSRDFDDVY", "≥ 20 µM"]
]}

Let us move to another entry and its Kd.
Lookup: Consider the sequence shown here: FIVEHINAM What is its recorded Kd?
Found: ≥ 20 µM

###

Target System: HLA-B*15:01
Assay Name: IEDB peptide-MHC binding, purified MHC/competitive/fluorescence; filed as Kd, often an IC50 or EC50 that approximates it; bounds were set here for any values at or beyond the usual limits of such assays
Test Parameters: source organism: Desulfitobacterium hafniense DCB-2
Metric Name: pKd
Give bare numbers, as −log10 of the molar value.

Lookup: Which value of pKd has been reported for FAGDLYRMY in the records?
Found: 6.09

###

Field: Kd. Provide a value for each of the sequences that follow.
Target System: HLA-A*02:06
Assay Name: IEDB peptide-MHC binding, purified MHC/competitive/radioactivity; filed as Kd, often an IC50 or EC50 that approximates it; bounds were set here for any values at or beyond the usual limits of such assays
Test Parameters: source organism: Vaccinia virus WR

{"columns": ["Sequence", "Kd"],
 "data": [
  ["EQRRSTIFDI", "≥ 25.6 µM"],
  ["PAMSTYSDI", "≥ 77.1 µM"]
]}

Okay, now this sequence:
Lookup: Bench note: what Kd did FLNISWFYI show?
Found: 0.000667 µM

###

Exercise: for every item that follows, state its recorded Kd.
Target System: HLA-A*68:01
Assay Name: IEDB peptide-MHC binding, purified MHC/competitive/radioactivity; filed as Kd, often an IC50 or EC50 that approximates it; bounds were set here for any values at or beyond the usual limits of such assays
Test Parameters: source organism: SARS coronavirus Tor2

{"columns": ["Sequence", "Kd"],
 "data": [
  ["DTVWEVQGYK", "0.881 nM"],
  ["TVAYFNMVY", "75.9 nM"],
  ["GVIRSIFAR", "0.519 nM"],
  ["TTTIKPVSYK", "99.1 nM"],
  ["CLFDRYFKY", "137 nM"],
  ["AVIIRGHLR", "2640 nM"]
]}

Below are some sequences; for each one, tell me its Kd.
1. WFSQRGGSYK
2. AQALNTLVK
3. NLCTHSFRK
4. NATFFIFNK
5. VLHDIGNPK

Found:
1. 142 nM
2. 1630 nM
3. ≥ 24400 nM
4. 19.5 nM
5. 6520 nM
